All figures here come from ChEMBL document CHEMBL1139006.

Listed here: items and their measured log10 of MIC.
# System: Streptococcus pneumoniae
# Assay: Antibacterial activity against Streptococcus pneumoniae ATCC 6301
# Assay type: functional
For clarity, the numbers are log10 values of MIC expressed in µg/mL.

// worked examples, log10 of MIC included
{"Compound": "CC[C@H]1OC(=O)C[C@@H](O)[C@H](C)[C@@H](O[C@@H]2O[C@H](C)[C@@H](O)[C@H](N(C)C)[C@H]2O)[C@@H](CC=O)C[C@@H](C)C(=N\\OCCCOc2ccc3ncccc3c2)/C=C/C(C)=C/C1CO (stereo partly specified)", "log10 of MIC": -1.60}
{"Compound": "CC[C@H]1OC(=O)C[C@@H](O)[C@H](C)[C@@H](O[C@@H]2O[C@H](C)[C@@H](O)[C@H](N(C)C)[C@@H]2O)[C@@H](CCN2CC(C)CC(C)C2)C[C@@H](C)C(=N\\OCCOc2ccccc2)/C=C/C(C)=C/C1CO (stereo partly specified)", "log10 of MIC": -0.70}

As a next step, examine the compound that follows.
q: Item CC[C@H]1OC(=O)C[C@@H](O)[C@H](C)[C@@H](O[C@@H]2O[C@H](C)[C@@H](O)[C@H](N(C)C)[C@@H]2O)[C@@H](CCN2CC(C)CC(C)C2)C[C@@H](C)C(=N/O)/C=C/C(C)=C/C1CO (stereo partly specified) with Streptococcus pneumoniae - log10 of MIC?
a: -0.11

---

# Tested on: Staphylococcus epidermidis
# Assay: Antibacterial activity against Staphylococcus epidermidis ATCC 12228
# Assay type: functional
Listed here: items and their measured MIC.

{"Compound": "CC[C@H]1OC(=O)C[C@@H](O)[C@H](C)[C@@H](O[C@@H]2O[C@H](C)[C@@H](O)[C@H](N(C)C)[C@@H]2O)[C@@H](CCN2CC(C)CC(C)C2)C[C@@H](C)C(=N/OCCCCc2ccc3ncccc3c2)/C=C/C(C)=C/C1CO (some centres undefined)", "Readout": "MIC", "Test value": "> 12.5 µg/mL"}
{"Compound": "CC[C@H]1OC(=O)C[C@@H](O)[C@H](C)[C@@H](O[C@@H]2O[C@H](C)[C@@H](O)[C@H](N(C)C)[C@H]2O)[C@@H](CC=O)C[C@@H](C)C(=N\\OC/C=C/c2cnc3ccccc3c2)/C=C/C(C)=C/C1CO (some centres undefined)", "Readout": "MIC", "Test value": "0.049 µg/mL"}
{"Compound": "CC[C@H]1OC(=O)C[C@@H](O)[C@H](C)[C@@H](O[C@@H]2O[C@H](C)[C@@H](O)[C@H](N(C)C)[C@@H]2O)[C@@H](CCN2CC(C)CC(C)C2)C[C@@H](C)C(=O)/C=C/C(C)=C/C1CO (some centres undefined)", "Readout": "MIC", "Test value": "0.78 µg/mL"}

As a next step, examine the compound that follows.
q: Fill in the blank: the reported MIC of CC[C@H]1OC(=O)C[C@@H](O)[C@H](C)[C@@H](O[C@@H]2O[C@H](C)[C@@H](O)[C@H](N(C)C)[C@H]2O)[C@@H](CC=O)C[C@@H](C)C(=N/OCCCCOc2ccc3ncccc3c2)/C=C/C(C)=C/C1CO (some centres undefined) is ____.
a: 0.2 µg/mL

---

# System: Staphylococcus epidermidis
# Assay: Antibacterial activity against Staphylococcus epidermidis ATCC 12228
# Format: functional
Readout: MIC (µg/mL)
Write the number in µg/mL without appending the unit.

// worked examples, MIC included
{"Compound": "CC[C@H]1OC(=O)C[C@@H](O)[C@H](C)[C@@H](O[C@@H]2O[C@H](C)[C@@H](O)[C@H](N(C)C)[C@H]2O)[C@@H](CC=O)C[C@@H](C)C(=N\\OCc2ccccc2)/C=C/C(C)=C/C1CO (some centres undefined)", "Result unit": "µg/mL", "MIC": 1.56}
{"Compound": "CC[C@H]1OC(=O)C[C@@H](O)[C@H](C)[C@@H](O[C@@H]2O[C@H](C)[C@@H](O)[C@H](N(C)C)[C@H]2O)[C@@H](CC=O)C[C@@H](C)C(=N\\OCCCOc2ccc3ncccc3c2)/C=C/C(C)=C/C1CO (some centres undefined)", "Result unit": "µg/mL", "MIC": 0.098}
{"Compound": "CC[C@H]1OC(=O)C[C@@H](O)[C@H](C)[C@@H](O[C@@H]2O[C@H](C)[C@@H](O)[C@H](N(C)C)[C@H]2O)[C@@H](CCN2C[C@H](C)C[C@H](C)C2)C[C@@H](C)C(=O)/C=C/C(C)=C/[C@@H]1CO[C@@H]1O[C@H](C)[C@@H](O)[C@@H](OC)[C@H]1OC", "Result unit": "µg/mL", "MIC": 0.098}
{"Compound": "CC[C@H]1OC(=O)C[C@@H](O)[C@H](C)[C@@H](O[C@@H]2O[C@H](C)[C@@H](O)[C@H](N(C)C)[C@@H]2O)[C@@H](CCN2CC(C)CC(C)C2)C[C@@H](C)C(=N\\OCC(=O)N2CCN(c3ccccc3)CC2)/C=C/C(C)=C/C1CO (some centres undefined)", "Result unit": "µg/mL", "MIC": 0.78}
{"Compound": "CC[C@H]1OC(=O)C[C@@H](O)[C@H](C)[C@@H](O[C@@H]2O[C@H](C)[C@@H](O)[C@H](N(C)C)[C@H]2O)[C@@H](CC=O)C[C@@H](C)C(=N/OC/C=C\\c2ccc3nccnc3c2)/C=C/C(C)=C/C1CO (some centres undefined)", "Result unit": "µg/mL", "MIC": 0.2}
{"Compound": "CC[C@H]1OC(=O)C[C@@H](O)[C@H](C)[C@@H](O[C@@H]2O[C@H](C)[C@@H](O)[C@H](N(C)C)[C@H]2O)[C@@H](CC=O)C[C@@H](C)C(=N/OCCOc2ccccc2)/C=C/C(C)=C/C1CO (some centres undefined)", "Result unit": "µg/mL", "MIC": 0.2}
{"Compound": "CC[C@H]1OC(=O)C[C@@H](O)[C@H](C)[C@@H](O[C@@H]2O[C@H](C)[C@@H](O)[C@H](N(C)C)[C@H]2O)[C@@H](CC=O)C[C@@H](C)C(=N/OC/C=C\\c2cnc3ccccc3c2)/C=C/C(C)=C/C1CO (some centres undefined)", "Result unit": "µg/mL", "MIC": 0.39}

As a next step, examine the compound that follows.
q: Fill in the blank: the reported MIC of CC[C@H]1OC(=O)C[C@@H](O)[C@H](C)[C@@H](O[C@@H]2O[C@H](C)[C@@H](O)[C@H](N(C)C)[C@H]2O)[C@@H](CC=O)C[C@@H](C)C(=N/OCc2ccccc2)/C=C/C(C)=C/C1CO (some centres undefined) is ____.
a: 0.78
